- ASSAY DETAILS: chemical genetic growth profiling, strain panel (AID 1159580);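 note: tested at 20 µM; growth read once vehicle control cultures reached saturation at 30 °C; lower values mean less growth of the strain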
- CONDITION DESCRIPTION: S. cerevisiae deletion strains, growth OD, locus YDL192W, strain arf1
The campaign covered roughly 5,500 compounds. About 2,000 (36%) were called active. Another 18% or so got no clear call; they are omitted. Cut-off read from the data, not from the text of the source: active = normalized growth mostly below about 0.91 (no sharp cut-off); inconclusive = no clear call, values can overlap the other calls; inactive = mostly above about 0.92. Some of the results follow.
Classes to choose from: TRUE = active, FALSE = inactive

Example entries begin here.
{"columns": ["MOLECULE", "CLASS LABEL"],
 "data": [
  ["COc1cc2occc2c2oc(=O)ccc12", "TRUE"],
  ["COc1c2ccoc2cc2oc(=O)ccc12", "TRUE"]
]}

Given CC(C)c1c(O)ccc2c1CCC1[C@@](C)(CO)CCC[C@]21C (stereo partly specified) , state the outcome it received in this test.
FALSE

Dear all, I need the recorded test outcome for CC(=O)Oc1ccc2c(c1C(C)C)CCC1C(C)(C)CCC[C@]21C (stereo partly specified) , thank you.
FALSE

For "CCN1C[C@]2(C)CC[C@H](OC)[C@]34C2[C@H](O)[C@]2(OCO[C@@]25C[C@H](OC)[C@H]2C[C@]3(O)C5[C@H]2O)C14" , which call appears in the assay record?
FALSE

Could you please tell me the result logged for CC(C1OC(C)(C)C(O)C1O)[C@@H]1CC[C@]2(C)C3=CCC4C(C)(C)C(=O)CC[C@]4(C)C3CC[C@@]12C (stereo partly specified) in this assay?
FALSE

# fetch the recorded call for COC(=O)[C@]1(C)CCC[C@]2(C)c3ccc(C(C)C)cc3C(=O)CC12 (stereo partly specified) here
FALSE
